System Name: Brd4 bromodomain 1 (BRD4(1)) (Homo sapiens, UniProt O60885)
Assay Details: Inhibition of tetra-acetylated histone H4 binding to Brd4 bromodomain 1 (TR-FRET)
Experimental Parameters: tetra-acetylated histone H4 peptide, first bromodomain of Brd4
Overview of reported IC50 across a group of molecules:

Example cases with answers are listed next.
[
  {
    "Smiles String": "Cc1noc(C)c1-c1cnc2[nH]c(=O)n(CC3CC3)c2c1",
    "IC50": "≤ 300 nM"
  },
  {
    "Smiles String": "Cc1noc(C)c1-c1ccc2ncc(=O)n(Cc3ccccc3)c2c1",
    "IC50": "≤ 300 nM"
  },
  {
    "Smiles String": "Cc1noc(C)c1-c1cc(O)c2nc(C)n(Cc3ccccc3)c2c1",
    "IC50": "≤ 300 nM"
  },
  {
    "Smiles String": "Cc1noc(C)c1-c1cnc2nc(N3CCNCC3)n(Cc3ccccc3)c2c1",
    "IC50": "≤ 300 nM"
  },
  {
    "Smiles String": "Cc1noc(C)c1-c1cc2c(ccn2Cc2ccccc2)[nH]c1=O",
    "IC50": "300 to 3000 nM"
  },
  {
    "Smiles String": "Cc1noc(C)c1-c1ccc2ccn(Cc3ccc(F)cc3)c2n1",
    "IC50": "3000 to 30000 nM"
  },
  {
    "Smiles String": "Cc1noc(C)c1-c1cnc2[nH]c(=O)n(Cc3ccc(Cl)s3)c2c1",
    "IC50": "≤ 300 nM"
  },
  {
    "Smiles String": "Cc1noc(C)c1-c1ccc2[nH]cc(Nc3ccccc3)c2n1",
    "IC50": "300 to 3000 nM"
  }
]

Q: Quick one: IC50 of Cc1noc(C)c1-c1cnc2ncn(Cc3ccccc3)c2c1 ?
A: ≤ 300 nM

Q: Any idea what IC50 was measured for COC(=O)c1cc(-c2c(C)noc2C)cc2c1[nH]c(=O)n2Cc1ccccc1 ?
A: ≤ 300 nM

Where these numbers come from: patent US10363257B2
